Test system: CP286
METHOD DESCRIPTION: qHTS profiling for inhibitors of Plasmodium falciparum proliferation (AID 504749); note: nearly all actives have a fitted effect of over 60% in size
MEASUREMENT CONTEXT: P. falciparum in erythrocytes, SYBR Green DNA, 72 h; series mostly up to 28.7 µM
Records with an inconclusive call do not appear. The source made the active and inactive calls. Calls come from the whole dose curve; as a rule, active = well fitted inhibition curve with a large enough effect; inconclusive = small, poorly fitted or top-dose-only effect; inactive = flat fitted curve, though single readings scatter.
Answer with one of the outcomes given here: active, inactive

A selection of reference data follows.
CC(C)C[C@H]1C(=O)N2CCCC2[C@]2(O)O[C@](NC(=O)[C@@H]3C=C4c5cccc6[nH]c(Br)c(c56)C[C@H]4N(C)C3)(C(C)C)C(=O)N12 (some centres undefined) = active
CC(/C=C1\SC(=S)N(CC(=O)O)C1=O)=C\c1ccccc1 = inactive

Q. What outcome does the record of this test show for CC(C)(C)[C@]1(O)CCN2CC3c4ccccc4CCc4cccc(c43)[C@@H]2C1 (some centres undefined) ?
A. active

Q. What outcome does the record of this test show for CN1C(=O)CCC1c1cccnc1 (centres undefined) ?
A. inactive

Q. What outcome does the record of this test show for CN1C[C@H](C(=O)N[C@]2(C)O[C@@]3(O)C4CCCN4C(=O)[C@H](Cc4ccccc4)N3C2=O)C[C@@H]2c3cccc4[nH]cc(c34)C[C@H]21 (some centres undefined) ?
A. active

Q. What outcome does the record of this test show for "C=C1/C(=C\C=C2/CCC[C@]3(C)[C@@H]([C@H](C)CCCC(C)(C)O)CC[C@@H]23)C[C@@H](O)C[C@@H]1O" ?
A. inactive

Q. What outcome does the record of this test show for "CO[C@H]1/C=C/O[C@@]2(C)Oc3c(C)c(O)c4c(O)c(c(/C=N\N5CCN(C6CCCC6)CC5)c(O)c4c3C2=O)NC(=O)/C(C)=C\C=C\[C@H](C)[C@H](O)[C@@H](C)[C@@H](O)[C@@H](C)[C@H](OC(C)=O)[C@@H]1C" ?
A. active

Q. What outcome does the record of this test show for "C[C@@H]1[C@H](O)[C@@H](C)/C=C/C=C/C=C/C=C/C=C/C=C/C=C/[C@H](O[C@@H]2O[C@H](C)[C@@H](O)[C@H](N)[C@@H]2O)C[C@@H]2O[C@](O)(C[C@@H](O)C[C@@H](O)[C@H](O)CC[C@@H](O)C[C@@H](O)CC(=O)O[C@H]1C)C[C@H](O)[C@H]2C(=O)O" ?
A. inactive

Q. What outcome does the record of this test show for COc1cc2c(cc1OC)C(c1ccccc1)CN(C)CC2 (centres undefined) ?
A. inactive

---

TARGET: Calcium and integrin-binding protein 1 (Homo sapiens) (UniProt Q99828)
Sequence (Q99828 whole entry, looked up): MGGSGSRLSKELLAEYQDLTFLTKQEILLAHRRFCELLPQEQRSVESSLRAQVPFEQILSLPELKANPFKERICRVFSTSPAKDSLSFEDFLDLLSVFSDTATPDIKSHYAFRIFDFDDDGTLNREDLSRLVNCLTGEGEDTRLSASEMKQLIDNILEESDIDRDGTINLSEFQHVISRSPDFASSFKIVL
METHOD DESCRIPTION: Primary qHTS for Identification of Calcium Integrin Binding Protein 1 (CIB1) Competitor (AID 1508620);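 note: GST tagged CIB1 binding a fluorescein labelled alphaIIb integrin peptide tracer; top concentration of the series differs between compounds; % is set by controls: 0 for no effect and ±100 for the full control effect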
MEASUREMENT CONTEXT: CIB1-GST / FITC-alphaIIb peptide fluorescence polarization; series mostly up to 114 µM
Records with an inconclusive call do not appear. Calls of active or inactive are those of the source. Calls come from the whole dose curve; as a rule, active = well fitted inhibition curve with a large enough effect; inconclusive = small, poorly fitted or top-dose-only effect; inactive = flat fitted curve, though single readings scatter.
RECORDED METRIC: outcome

Cc1cc(C)nc(NC(=S)N2CCN(c3ccc4occc4c3)CC2)c1 = inactive
NC(=O)C1CCN(c2ncc(-c3cccc(F)c3)s2)CC1 = inactive
Cn1cc(P(=O)(c2ccccc2)c2ccccc2)c2ccccc21 = inactive
O=C(O)c1ccccc1OC1=NS(=O)(=O)c2ccccc21 = inactive
O=C([C@H](Cc1ccc(O[S+](=O)([O-])c2cccnc2)cc1)N[S+](=O)([O-])c1cccc2cnccc12)N1CCN(c2ccccc2)CC1 = inactive
CC(=O)c1ccc(N2CCN(S(=O)(=O)c3ccc4c(c3)oc(=O)n4C)CC2)cc1 = inactive

Q. Determine from records and report outcome for "O=C(NCc1cccnc1)C1CCN(S(=O)(=O)c2cccs2)CC1"
A. inactive

Q. Determine from records and report outcome for "Cc1cc(-c2nnc3n2CCCC3)c(C)n1-c1ccccc1"
A. inactive

Q. Determine from records and report outcome for "O=C1Cc2cc(S(=O)(=O)N3CCN(c4ccc(Cl)cc4)CC3)ccc2N1"
A. inactive

Q. Determine from records and report outcome for "O=C(CCc1ccccc1Br)NCCc1nc2ccccc2[nH]1"
A. inactive

Q. Determine from records and report outcome for "O=C(OCC#CCNc1nnc(-c2cccc3ccccc23)o1)c1cccs1"
A. inactive

Q. Determine from records and report outcome for "Fc1ccc(-c2ccc(Nc3nc(-c4ccncc4)nc4ccccc34)cc2F)cc1"
A. inactive

Q. Determine from records and report outcome for "O=C1c2ccccc2C(=O)N1c1ncccc1O"
A. inactive

Q. Determine from records and report outcome for "O=C(c1c(F)cccc1F)N1CCN(S(=O)(=O)c2ccc3c(c2)OCCO3)CC1"
A. inactive

---

Tested on: CP250
METHOD DESCRIPTION: qHTS profiling for inhibitors of Plasmodium falciparum proliferation (AID 504749); note: nearly all actives have a fitted effect of over 60% in size; note: potency is the fitted concentration of half-maximal effect
MEASUREMENT CONTEXT: P. falciparum in erythrocytes, SYBR Green DNA, 72 h; series mostly up to 28.7 µM
Results filed as inconclusive are left out. Activity calls are given as the source filed them. Calls follow the shape of the dose curve; as a rule, active = well fitted inhibition curve with a large enough effect; inconclusive = small, poorly fitted or top-dose-only effect; inactive = flat fitted curve, though single readings scatter.
RECORDED METRIC: Potency

// worked examples, Potency included
CN=C(N)NCCCC(N)C(=O)O (stereo not drawn) = inactive
C=C1/C(=C\C=C2/CCC[C@]3(C)[C@@H]([C@H](C)CCCC(C)(C)O)CC[C@@H]23)C[C@@H](O)C[C@@H]1O = inactive
CN1C(=O)CCC1c1cccnc1 (stereo not drawn) = inactive
C=C1CCC2[C@](C)(CO)C(O)CC[C@]2(C)C1C/C=C1/C(=O)OCC1O (stereo partly drawn) = 12.6 µM (active)
CO[C@H]1/C=C/O[C@@]2(C)Oc3c(C)c(O)c4c(O)c(c(/C=N\N5CCN(C6CCCC6)CC5)c(O)c4c3C2=O)NC(=O)/C(C)=C\C=C\[C@H](C)[C@H](O)[C@@H](C)[C@@H](O)[C@@H](C)[C@H](OC(C)=O)[C@@H]1C = 3.16 µM (active)
CC(/C=C1\SC(=S)N(CC(=O)O)C1=O)=C\c1ccccc1 = inactive
N[C@H](Cc1ccc(O)c(O)c1)C(=O)O = inactive

Turning now to a further compound:
Q. Determine from records and report Potency for "Oc1ccc(/C=C\c2cc(O)cc(O)c2)cc1"
A. inactive

---

METHOD DESCRIPTION: qHTS Assay for Lipid Storage Modulators (AID 1519)
MEASUREMENT CONTEXT: Drosophila S3 cells, BODIPY lipid droplet/cell ratio, laser cytometry; measured here: cell count channel max response; cells loaded with oleic acid
Results filed as inconclusive are left out.
Collected max response values appear next to each entry.
Give your result in % as a bare value.

// worked examples, max response included
c1csc(CNc2ncncc2-c2ccc3c(c2)OCO3)c1 = 0.346
CS(=O)(=O)Nc1cccc(-c2nccc(NCc3ccccc3)n2)c1 = -0.959
COCCn1c(=O)c(-c2cccc(C#N)c2)nc2cnc(OC)nc21 = 19.6
N#CCCn1c(=O)cnc2cnc(N3CCOCC3)nc21 = 18.1
COC(=O)N1CCC[C@@]2(CCN(c3ccncc3)C2)C1 = 18.5
O=C(c1ccncc1)N1CCC2(CC1)CCN(c1ccccc1)CC2 = 0.126

Q. Determine from records and report max response for "CN(C)Cc1ccccc1-c1nccc(N(C)C)n1"
A. 4.56

Q. Determine from records and report max response for "O=C(Nc1cccc(F)c1)N1CC[C@@]2(CCCNC2)C1"
A. -1.25

Q. Determine from records and report max response for "N#Cc1ccccc1-c1nc(NCCN2CCOCC2)c2ccccc2n1"
A. 14.8

Q. Determine from records and report max response for "COc1ccccc1-c1cc(NCc2cccc(C)c2)ncn1"
A. 4.86

Q. Determine from records and report max response for "CC(=O)N1CCC[C@@]2(CCN(Cc3cc(C(F)(F)F)cc(C(F)(F)F)c3)C2)C1"
A. 8.88

Q. Determine from records and report max response for "Cc1cnc(CNc2ccnc(-c3c(C)noc3C)n2)cn1"
A. 24.6

---

Collected Z-AUC values appear next to each entry.
METHOD DESCRIPTION: qHTS drug screen for cell cycle checkpoint inhibitors in PARPi-resistant BRCA-mutant ovarian cancer cell lines. (AID 1963452)
MEASUREMENT CONTEXT: PEO1/OlaR viability, CellTiter-Glo luminescence, 96 h; measured here: PEO1 parental Z-AUC; stronger effect = lower value
Description: Women's Malignancies Branch, Center for Cancer Research (CCR), National Cancer Institute (NCI), National Institutes of Health (NIH), Bethesda, MD Poly (ADP-ribose) polymerase inhibitors (PARPis) have changed the treatment paradigm in breast cancer gene (BRCA) - mutant high-grade serous ovarian carcinoma (HGSC). […] 6; Detection; Luminescence, PHERAstar (BMG Labtech) plate reader. […] 6. Luminescence readings were taken using PHERAstar (BMG Labtech). […]

// worked examples, Z-AUC included
Cc1cc(Nc2cc(N)ncn2)c(=O)n2c1C(=O)NC21CCCCC1 = 0.752
O=C(O)CCCCN(CCc1ccccc1OCc1ccc(CCc2ccccc2)cc1)Cc1ccc(C(=O)O)cc1 = 0.492
CC1=NN(c2ccc(C(=O)O)cc2)C(=O)/C1=C/c1ccc(-c2cc(C)c(C)cc2[N+](=O)[O-])o1 = 0.127
Cc1ccc(NC(=O)c2ccc3c(c2)OCCO3)cc1NC(=O)c1ccc2nc(OCCN3CCCC3)ccc2c1 = -1.87
COc1cc2nccc(Oc3ccc(NC(=O)c4cn(C(C)C)c(=O)n(-c5ccc(F)cc5)c4=O)cc3F)c2cc1OC = -0.766
CC(=O)N[C@H]1CSSC[C@@H](C(N)=O)NC(=O)[C@H](C(C)C)NC(=O)[C@H](C)NC(=O)[C@H](Cc2cnc[nH]2)NC1=O = -0.625

Q. Determine from records and report Z-AUC for "CS(=O)(=O)c1ccc(-c2cnc(NCc3ccco3)n3cnnc23)cc1"
A. 0.794

Q. Determine from records and report Z-AUC for "O=C(Cc1ccccc1)Nc1nnc(CCSCCc2nnc(NC(=O)Cc3ccccc3)s2)s1"
A. 1.23

Q. Determine from records and report Z-AUC for "CC(C)(O)CS(=O)(=O)Nc1ccc2c(c1)CCN(C(=O)COc1cccnc1)C2"
A. -2.73
